So I've got a bunch of molecules here, and I need their Population Normal (%) values.
test system: U2OS; assay: Multiplex assay against U2OS; type: toxicity, cell-based; conditions: human, 12 h, 10 µM, compound concentration 10 uM, replicate 2
Answers are plain numbers, in %.

molecule | readout_label | experimental_result
c1cc(OCCCN2CCCCC2)ccc1CN1CCCCC1 | Population Normal (%) | 95
O=S(=O)(c1ccccc1)c1cnc2c(N3CCNCC3)cccc2c1 [INTEPIRDINE] | Population Normal (%) | 97
CNC[C@H](O)c1ccc(O)c(O)c1 [EPINEPHRINE] | Population Normal (%) | 90

List the reported Population Normal (%) of each molecule below.
1. Cc1nc2ccc(Oc3ccc(F)cc3)cc2c(=O)n1C[C@H]1CCCN(C(C)C)C1.Cl
2. Cc1ccc(C(C)(O)c2nc3ccccc3s2)c(C)c1 (centres undefined)
3. C[C@@H]1C[C@H]2[C@@H]3CCC4=CC(=O)C=C[C@]4(C)[C@@]3(F)[C@@H](O)C[C@]2(C)[C@@]1(O)C(=O)CO
4. CC(C)(C)c1ccc(S(=O)(=O)Nc2ccc(Cl)cc2C(=O)c2cc[n+]([O-])cc2)cc1
5. COc1c(C)cc(NC(=O)c2nn(Cc3ccc(F)cc3)c3c2CN(C(=O)c2ccc[nH]2)C[C@]3(C)C(N)=O)cc1C
6. N#Cc1c(N)nc(SCc2csc(-c3ccc(Cl)cc3)n2)c(C#N)c1-c1ccc(OCCO)cc1
7. N[C@@]1(C(=O)O)CO[C@H]2[C@H](C(=O)O)[C@H]21
8. CC(=O)O[C@H]1C(=O)[C@@]2(C)[C@H]([C@H](OC(=O)c3ccccc3)[C@]3(O)C[C@H](OC(=O)[C@H](O)[C@@H](NC(=O)c4ccccc4)c4ccccc4)C(C)=C1C3(C)C)[C@]1(OC(C)=O)CO[C@@H]1C[C@@H]2O

[95, 95, 100, 99, 91, 99, 98, 97]

Look up Population Normal (%) for the entries below, preserving their order.
1. Cc1ccc(-c2ccc(F)cc2COc2ccc(CCC(=O)O)cc2)cc1
2. CN1CCN(c2nc3cc(C(F)(F)F)ccc3n3cccc23)CC1.O=C(O)/C=C\C(=O)O.O=C(O)/C=C\C(=O)O
3. CN(C)CCCc1cc(C(=O)Nc2ccc(-c3ccncc3)cc2)ccc1O.Cl.Cl
4. Oc1c(CN2CCN(c3ccccn3)CC2)cc(Cl)c2cccnc12
5. COc1cc(C(=O)N(CCCc2ccccc2)Cc2ccc(CC(=O)O)cc2)cc(OC)c1C
6. CC(=O)NCCc1c(Cc2ccccc2)[nH]c2ccccc12
7. O=C(NCC(=O)N1CC[C@H](N[C@H]2CC[C@@](O)(c3ccc(-c4ncccn4)cn3)CC2)C1)c1cccc(C(F)(F)F)c1

1. 97
2. 97
3. 98
4. 98
5. 98
6. 98
7. 98

I have 7 molecules here; please give me Population Normal (%) for each one.
1. O=C1COc2nccc(-c3ccccc3F)c2CN1Cc1cc(C(F)(F)F)cc(C(F)(F)F)c1
2. O=C(O)Cc1ccccc1Nc1c(Cl)cccc1Cl
3. CC1(COc2ccc3c(c2)ncn3-c2ccc3cccc(N4CCC(N)CC4)c3n2)COC1
4. CC[C@H]1OC(=O)[C@H](C)[C@@H](O[C@H]2C[C@@](C)(OC)[C@@H](O)[C@H](C)O2)[C@H](C)[C@@H](O[C@@H]2O[C@H](C)C[C@H](N(C)C)[C@H]2O)[C@@]2(C)CC(C)=C(O2)[C@H](C)[C@@H](O)[C@]1(C)O
5. COc1cc(NC(=O)CCN2CCC(OC(=O)Nc3ccccc3-c3ccccc3)CC2)c(Cl)cc1CNC[C@H](O)c1ccc(O)c2[nH]c(=O)ccc12
6. O=C(NCCO)c1cccc(-c2cc(Nc3ccc(OC(F)(F)F)cc3)ncn2)c1
7. C[C@H]1[C@H]2CC[C@H]3[C@@H]4CC=C5C[C@@H](N(C)C)CC[C@]5(C)[C@H]4CC[C@]23CN1C

1. 94
2. 96
3. 75
4. 95
5. 92
6. 97
7. 99

Can you give me Population Normal (%) for all of these, one by one?
1. CN(C)c1ccnc2sc3c(=O)n(N4CCCCCC4)cnc3c12
2. O=C(O)c1cc2ccccc2c(Cc2c(O)c(C(=O)O)cc3ccccc23)c1O
3. CCCN1CCC[C@@H]2Cc3n[nH]cc3C[C@H]21.Cl [QUINPIROLE HYDROCHLORIDE]
4. CCCn1c(=O)c2[nH]c(C3CCCC3)nc2n(CCC)c1=O
5. CCNC1(C(N)=O)CCN(c2ncnc3c2nc(-c2ccccc2Cl)n3-c2ccc(Cl)cc2)CC1

1: 94; 2: 100; 3: 97; 4: 96; 5: 99
